- SUBJECT_OF_TEST: MetAP-2 (Homo sapiens, UniProt P50579)
- Sequence (P50579 whole entry, species assumed): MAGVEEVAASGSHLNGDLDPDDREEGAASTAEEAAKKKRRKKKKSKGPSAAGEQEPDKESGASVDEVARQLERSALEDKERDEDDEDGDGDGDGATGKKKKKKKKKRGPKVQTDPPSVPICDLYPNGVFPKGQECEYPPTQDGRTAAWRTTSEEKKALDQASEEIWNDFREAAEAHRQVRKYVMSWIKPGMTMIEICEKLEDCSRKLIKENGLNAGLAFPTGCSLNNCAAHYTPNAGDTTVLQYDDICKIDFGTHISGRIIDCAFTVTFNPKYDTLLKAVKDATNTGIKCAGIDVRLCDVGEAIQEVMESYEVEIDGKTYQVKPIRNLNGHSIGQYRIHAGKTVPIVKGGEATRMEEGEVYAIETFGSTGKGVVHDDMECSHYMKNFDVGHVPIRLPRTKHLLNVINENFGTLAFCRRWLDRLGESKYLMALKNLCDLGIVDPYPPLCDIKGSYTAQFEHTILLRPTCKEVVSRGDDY
- PROTOCOL: MetAP-2 activity measurement (coupled enzymatic reactions, substrate Met-Arg-Ser, photometric at 450 nm)
- Assay type: biochemical
- SETUP_CONDITIONS: read-out: IC50 enzyme (Inhibition of MetAP-2)
Where a name gives a salt, the structure may show the parent alone.
PROPERTY: IC50

O=C(NCCN1CCOCC1)c1cccc(-c2ncc(OC[C@H]3CCCN3c3ncnc4[nH]cnc34)cn2)c1 [A66] | 0.01 to 1 µM
c1cnc2c(OC[C@H]3CCCN3c3ncnc4[nH]cnc34)ccc(CN3CCCCC3)c2c1 [A42, formate] | 1 to 10 µM
CC(=O)N(Cc1ccn(C)n1)Cc1ccc(OC[C@H]2CCCN2c2ncnc3[nH]cnc23)c2ccccc12 [A99] | 0.01 to 1 µM
O=c1ccc(-c2cc(F)cc(F)c2)nn1CC1CCCN1c1ncnc2[nH]cnc12 (centres unmarked) [A32] | > 10 µM
CC(C)(C)OC(=O)NCCCC[C@H](NC(=O)OCc1ccccc1)C(=O)N1CCc2cccc(OC[C@H]3CCCN3c3ncnc4[nH]cnc34)c2C1 [A193] | > 10 µM
CC1(C)Cc2cccc(OC[C@H]3CCCN3c3ncnc4[nH]cnc34)c2O1 [A72] | 1 to 10 µM
c1ccc2c(c1)oc1cc(OC[C@H]3CCCN3c3ncnc4[nH]cnc34)ccc12 [A37] | 1 to 10 µM
CNc1ccccc1C(=O)OC[C@H]1CCCN1c1ncnc2[nH]cnc12 [A143] | 0.01 to 1 µM

---

Reported values: IC50 for UniProt P50579, one per item.
PROPERTY: IC50

Cc1ccc2nc(C(F)(F)F)cc(OC[C@H]3CCCN3c3ncnc4[nH]cnc34)c2c1 [A117] | 10 to 1000 nM
O=Cc1ccc(OC[C@H]2CCCN2c2ncnc3[nH]cnc23)c2ccccc12 [A2] | 10 to 1000 nM
c1ccc2c(OC[C@H]3CCCN3c3ncnc4[nH]cnc34)ccc(CN3CCOCC3)c2c1 [A3] | 10 to 1000 nM
Cc1nc2c(N3CCC[C@@H]3COc3ccccc3Cl)ncnc2[nH]1 [A16] | > 10000 nM
CN(C)C(=O)C[C@@H]1CCc2c(OC[C@H]3CCCN3c3ncnc4[nH]cnc34)cccc2C1=O [A174] | 10 to 1000 nM
Nc1ccc2cccc(OC[C@H]3CCCN3c3ncnc4[nH]cnc34)c2c1 [A144] | 10 to 1000 nM
O=C1CC[C@@H](C(=O)N2CCc3cccc(OC[C@H]4CCCN4c4ncnc5[nH]cnc45)c3C2)N1 [A192] | 10 to 1000 nM
O=C1CCCc2c(OC[C@H]3CCCN3c3ncnc4[nH]cnc34)cccc21 [A51] | 10 to 1000 nM
Clc1cccc(/C=C/[C@H]2CCCN2c2ncnc3[nH]cnc23)c1 [A11] | 1000 to 10000 nM
O=C1c2cccc(OC[C@H]3CCCN3c3ncnc4[nH]cnc34)c2CC[C@H]1Cc1c[nH]cn1 [A97] | 10 to 1000 nM
CCCNC(=O)c1cc(OC[C@H]2CCCN2c2ncnc3[nH]cnc23)c2ccccc2n1 [A71] | 10 to 1000 nM
O=C1c2cccc(OC[C@H]3CCCN3c3ncnc4[nH]cnc34)c2CC[C@@H]1Cc1c[nH]cn1 [A96] | 10 to 1000 nM
c1cc(OC[C@H]2CCCN2c2ncnc3[nH]cnc23)c2nccc(CN3CCOCC3)c2c1 [A56] | 1000 to 10000 nM
NC(=O)C[C@H](N)C(=O)N1CCc2cccc(OC[C@H]3CCCN3c3ncnc4[nH]cnc34)c2C1 [A201] | 1000 to 10000 nM
CCOC(=O)CNC(=O)N1CCN(c2ccc3cccc(OC[C@H]4CCCN4c4ncnc5[nH]cnc45)c3c2)CC1 [A157] | 1000 to 10000 nM
c1cnc2c(OC[C@H]3CCCN3c3ncnc4[nH]cnc34)cccc2c1 [A43] | 1000 to 10000 nM
O=C1c2cccc(OC[C@H]3CCCN3c3ncnc4[nH]cnc34)c2CC[C@@H]1Cc1cc[nH]n1 [A129] | 10 to 1000 nM
c1ccc(-c2nc3ccccc3s2)c(OC[C@H]2CCCN2c2ncnc3[nH]cnc23)c1 [A103] | 1000 to 10000 nM

---

- SUBJECT_OF_TEST: MetAP-2 (Homo sapiens, UniProt P50579)
Structures can show the parent of a compound that is named as a salt.
Let's look at some compounds and their measured IC50.
PROPERTY: IC50

CC(C)(C)OC(=O)NCCCCCC(=O)N1CCc2cccc(OC[C@H]3CCCN3c3ncnc4[nH]cnc34)c2C1 | 1000 to 10000 nM
CCc1nc2c(N3CCC[C@@H]3COc3ccccc3Cl)ncnc2[nH]1 [A17, HCl] | > 10000 nM
Cc1cc2c(OC[C@H]3CCCN3c3ncnc4[nH]cnc34)cccc2n1C(=O)C(F)(F)F | 1000 to 10000 nM
O=C(OCc1ccccc1)N1CCc2cccc(OC[C@H]3CCCN3c3ncnc4[nH]cnc34)c2C1 | 1000 to 10000 nM
c1ccc2c(NCCN3CCOCC3)ncc(OC[C@H]3CCCN3c3ncnc4[nH]cnc34)c2c1 | 1000 to 10000 nM
COC(=O)c1cccc(-c2ncc(OC[C@H]3CCCN3c3ncnc4[nH]cnc34)cn2)c1 | 10 to 1000 nM
CN1CCN(c2ccc3cccc(OC[C@H]4CCCN4c4ncnc5[nH]cnc45)c3c2)CC1 | 1000 to 10000 nM
NC(=O)CC[C@H](N)C(=O)Nc1ccc2cccc(OC[C@H]3CCCN3c3ncnc4[nH]cnc34)c2c1 [A165, HCl] | 1000 to 10000 nM

---

- PROTOCOL: Shake flask solubility measurement
- Format: physicochemical
- SETUP_CONDITIONS: sodium phosphate/sodium chloride buffer, aqueous buffer, thermodynamic from solid; buffer system at pH 7; shaken at 37° C. for 24 h
PROPERTY: solubility at 24 h (µg/mL)

c1ccc2c(OC[C@H]3CCCN3c3ncnc4[nH]cnc34)ccc(CNCCN3CCOCC3)c2c1 | 283

---

Counter-ions that a name gives are not always drawn.
Values of IC50 reported for MetAP-2 (Homo sapiens, UniProt P50579) appear below.
PROPERTY: IC50

O=C(Cn1c(C(=O)NCCc2ccc(F)cc2)c(OC[C@H]2CCCN2c2ncnc3[nH]cnc23)c2cc(F)ccc21)NCCc1ccc(F)cc1 | > 10000 nM
O=C(NC1CC1)c1cc(OC[C@H]2CCCN2c2ncnc3[nH]cnc23)c2ccccc2n1 [A14, hydrochloride] | 1000 to 10000 nM
NC(=O)CCn1cnc2c(N3CCC[C@@H]3COc3cccc4ccc(O)cc34)ncnc21 | > 10000 nM
O=S(=O)(O)c1ccc2cccc(NC[C@H]3CCCN3c3ncnc4[nH]cnc34)c2c1 | > 10000 nM
CCNC(=O)c1cc(OC[C@H]2CCCN2c2ncnc3[nH]cnc23)c2ccccc2n1 [A50, formate] | 10 to 1000 nM
c1cc(OC[C@H]2CCCN2c2ncnc3[nH]cnc23)c2cccnc2c1 | 10 to 1000 nM
CCCCOC(=O)c1cc(OC[C@H]2CCCN2c2ncnc3[nH]cnc23)c2cc(F)ccc2n1 | 10 to 1000 nM
CNC(=O)c1cc(OC[C@H]2CCCN2c2ncnc3[nH]cnc23)c2ccccc2n1 [A48, formate] | 10 to 1000 nM
CC(=O)N(Cc1ccc(OC[C@H]2CCCN2c2ncnc3[nH]cnc23)c2ccccc12)CC(O)CO (some centres unmarked) | 10 to 1000 nM
COCCOc1cccc2c(OC[C@H]3CCCN3c3ncnc4[nH]cnc34)cccc12 | 10 to 1000 nM
F[C@@H]1C[C@H](COc2cccc3ccccc23)N(c2ncnc3[nH]cnc23)C1 | > 10000 nM
OC1CCN(C2CCc3cccc(OC[C@H]4CCCN4c4ncnc5[nH]cnc45)c3C2)C1 (some centres unmarked) | 1000 to 10000 nM
CC(O)CNC(=O)c1cc(OC[C@H]2CCCN2c2ncnc3[nH]cnc23)c2ccccc2n1 (some centres unmarked) [A68, hydrochloride] | 10 to 1000 nM
O=C1CCc2cccc(OC[C@H]3CCCN3c3ncnc4[nH]cnc34)c2C1 | 1000 to 10000 nM
c1ccc2c(NCCCN3CCOCC3)ncc(OC[C@H]3CCCN3c3ncnc4[nH]cnc34)c2c1 | 1000 to 10000 nM
c1ccc2c(OC[C@H]3CCCN3c3ncnc4[nH]cnc34)cncc2c1 | 10 to 1000 nM
O=C(O)CC[C@H](NC(=O)O)C(=O)Nc1ccc2cccc(OC[C@H]3CCCN3c3ncnc4[nH]cnc34)c2c1 | > 10000 nM
c1cc(OC[C@H]2CCCN2c2ncnc3[nH]cnc23)c2nccn2c1 | 1000 to 10000 nM
F[C@@H]1C[C@H](COc2ccccc2Cl)N(c2ncnc3[nH]cnc23)C1 | > 10000 nM
c1ccc2c(OC[C@H]3CCCN3c3ncnc4[nH]cnc34)ccnc2c1 | 10 to 1000 nM
C(=C\[C@H]1CCCN1c1ncnc2[nH]cnc12)/c1cccc2ccccc12 | 1000 to 10000 nM
N[C@@H](Cc1c[nH]cn1)C(=O)Nc1ccc2cccc(OC[C@H]3CCCN3c3ncnc4[nH]cnc34)c2c1 [A164, HCl] | 1000 to 10000 nM
CN(C)CCCNc1ncc(OC[C@H]2CCCN2c2ncnc3[nH]cnc23)c2ccccc12 | 10 to 1000 nM
Nn1ccc2c(N3CCC[C@@H]3COc3ccccc3F)ncnc21 | > 10000 nM
O=CN(CCN1CCOCC1)Cc1ccc(OC[C@H]2CCCN2c2ncnc3[nH]cnc23)c2ccccc12 | 10 to 1000 nM
c1ccc2c(NC[C@H]3CCCN3c3ncnc4[nH]cnc34)cccc2c1 | > 10000 nM
CCOC(=O)/C=C/c1ccccc1OC[C@H]1CCCN1c1ncnc2[nH]cnc12 | 10 to 1000 nM
Clc1ccccc1CCC1CCCN1c1ncnc2[nH]cnc12 (racemic) | 1000 to 10000 nM
Oc1ccc2cccc(NC[C@H]3CCCN3c3ncnc4[nH]cnc34)c2c1 | > 10000 nM
Cc1cc2c(OC[C@H]3CCCN3c3ncnc4[nH]cnc34)cccc2cn1 | 10 to 1000 nM
Cn1c(C(=O)O)c(OC[C@H]2CCCN2c2ncnc3[nH]cnc23)c2cc(F)ccc21 | > 10000 nM
Brc1nc2c(N3CCC[C@@H]3COc3cccc4ccccc34)ncnc2[nH]1 | > 10000 nM
CNC(=O)CC1CCc2c(OC[C@H]3CCCN3c3ncnc4[nH]cnc34)cccc2C1=O (some centres unmarked) | 10 to 1000 nM
O=C(O)CCCCOc1ccc2cccc(OC[C@H]3CCCN3c3ncnc4[nH]cnc34)c2c1 | > 10000 nM
Fc1ccc(CCNCCn2cc(OC[C@H]3CCCN3c3ncnc4[nH]cnc34)c3cc(F)ccc32)cc1 | > 10000 nM
